Where these numbers come from: ChEMBL document CHEMBL4689842

test system: U2OS; assay: Incucyte cell viability with U2OS; format: toxicity, cell-based; details: human, 12 h, 10 µM, compound concentration 10 uM, replicate number 1, timepoint 12 hours; note: filed as whole numbers so only -1 and 0 and 1 occur
READOUT_KIND: Growth Rate

[[record]]
molecule = "N#Cc1ccc(NC(=O)Nc2ccccc2Br)c2nn[nH]c12"
test_system = "U2OS"
reading = 1

[[record]]
molecule = "CCC(=O)N1CCOc2c(cc(-c3ccc(OC)c(OC)c3)cc2OC[C@H]2CCCN(C)C2)C1"
test_system = "U2OS"
reading = 1

[[record]]
molecule = "Cc1[nH]c(/C=C2\\C(=O)Nc3ccc(S(=O)(=O)N(C)c4cccc(Cl)c4)cc32)c(C)c1C(=O)N1CCN(C)CC1"
test_system = "U2OS"
reading = 0

[[record]]
molecule = "C[C@@H]1CCN(C(=O)CC#N)C[C@@H]1N(C)c1ncnc2[nH]ccc12.O=C(O)CC(O)(CC(=O)O)C(=O)O [TOFACITINIB CITRATE]"
test_system = "U2OS"
reading = 0

[[record]]
molecule = "CN1CCC[C@@H]1CCO[C@](C)(c1ccccc1)c1ccc(Cl)cc1.O=C(O)/C=C/C(=O)O [CLEMASTINE FUMARATE]"
test_system = "U2OS"
reading = 0

[[record]]
molecule = "C=CC(=O)Nc1cc2c(Nc3ccc(F)c(Cl)c3)ncnc2cc1OCCCN1CCOCC1.Cl.Cl [CANERTINIB DIHYDROCHLORIDE]"
test_system = "U2OS"
reading = 0

[[record]]
molecule = "C[C@@]1(Cc2ccc(C#N)cc2)C(=O)N(c2cc(Cl)cc(Cl)c2)c2ncc(C(=O)NC3(c4nc(C5CCC5)no4)CC3)n21 [BI 9446]"
test_system = "U2OS"
reading = 1

[[record]]
molecule = "CS(=O)(=O)NC[C@H]1CC[C@H](Nc2nc3c(s2)CCSc2ccccc2-3)CC1"
test_system = "U2OS"
reading = 0

[[record]]
molecule = "CCn1c(=O)c(-c2ccc(Cl)cc2Cl)cc2cnc(Nc3ccc(N4CCNCC4)c(F)c3)nc21"
test_system = "U2OS"
reading = 0

[[record]]
molecule = "COc1cc2c(cc1OCCCN1CCCC1)N=C(N)C21CCC1"
test_system = "U2OS"
reading = 1

[[record]]
molecule = "C[C@H](c1ccc(F)cc1)N(Cc1ccc(Cl)c(C(=O)O)c1)C(=O)c1cnc2ccccc2c1 [PF-05257137]"
test_system = "U2OS"
reading = 1

[[record]]
molecule = "CC(C)(C)NCC(O)COc1cccc2[nH]c(=O)[nH]c12.Cl (configuration not stated)"
test_system = "U2OS"
reading = 1

[[record]]
molecule = "CC(=O)C1=C(C)N(c2cccc(C(F)(F)F)c2)C(=O)N[C@H]1c1ccc(C#N)nc1 [BAY-677]"
test_system = "U2OS"
reading = 1

[[record]]
molecule = "CCCCN1CCC(COC(=O)c2cc(Cl)c(N)c3c2OCCO3)CC1.Cl"
test_system = "U2OS"
reading = 1

[[record]]
molecule = "N#Cc1c(O)nc(SCc2cccc(F)c2F)nc1C1CC1"
test_system = "U2OS"
reading = 1

[[record]]
molecule = "Cc1cc(Nc2nccc(C)n2)cc(-c2cnc([C@@]3(O)CC[C@H](C(=O)O)C(C)(C)C3)s2)c1 [MRL-SYKi]"
test_system = "U2OS"
reading = 0

[[record]]
molecule = "CC(C)S(=O)(=O)c1ccc2nccc(Nc3ccc4scnc4c3)c2c1"
test_system = "U2OS"
reading = 1

